Hi there, I'd appreciate the recorded pIC50 for every entry that follows.
Biological target: COX-2 (Homo sapiens, UniProt P35354)
Sequence (P35354 18-604): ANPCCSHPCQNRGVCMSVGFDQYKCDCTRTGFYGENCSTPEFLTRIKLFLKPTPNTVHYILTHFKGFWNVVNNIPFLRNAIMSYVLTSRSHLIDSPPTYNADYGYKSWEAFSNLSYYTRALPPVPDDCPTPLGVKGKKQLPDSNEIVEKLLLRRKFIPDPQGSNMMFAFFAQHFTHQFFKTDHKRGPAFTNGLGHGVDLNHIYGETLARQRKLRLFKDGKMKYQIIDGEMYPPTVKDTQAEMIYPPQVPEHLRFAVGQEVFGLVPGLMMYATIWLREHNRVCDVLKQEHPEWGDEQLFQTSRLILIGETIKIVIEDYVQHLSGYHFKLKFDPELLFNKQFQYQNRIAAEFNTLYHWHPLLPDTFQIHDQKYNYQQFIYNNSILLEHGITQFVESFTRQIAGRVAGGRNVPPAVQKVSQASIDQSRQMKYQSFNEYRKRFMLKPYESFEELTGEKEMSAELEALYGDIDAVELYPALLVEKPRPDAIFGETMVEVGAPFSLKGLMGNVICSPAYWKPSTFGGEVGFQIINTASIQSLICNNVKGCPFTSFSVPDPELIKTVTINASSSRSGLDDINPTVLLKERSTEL
Test: Human whole blood assay, COX-2 (LPS-induced PGE2 production)
Format: cell-based
Set-up: endogenous in cells; host or cells: fresh heparinized human whole blood from volunteers, stimulated with LPS
Settings: LPS 100 µg/ml, 24 hours at 37°C, read-out: COX-2 (IC50) HWB
Please note pIC50 is a logarithmic value: minus log10 of concentration in mol/L. Answer with that number alone.

Input `C=C(C)OC1=C(c2ccc(S(C)(=O)=O)cc2)C(C)(C)OC1=O` . Output pIC50: 5.68

Short answer for `CC1(C)OC(=O)C(OC2CCC(F)(F)CC2)=C1c1ccc(S(C)(=O)=O)cc1` : pIC50 was 6.22
